In this section, each of the binders is paired with its reported IC50 (pM), proliferation assay with hIL-5 (0.25 ng/mL).
Biological target: T1, human IL-5 (human, UniProt P05113 20-134)
T1 sequence (looked up): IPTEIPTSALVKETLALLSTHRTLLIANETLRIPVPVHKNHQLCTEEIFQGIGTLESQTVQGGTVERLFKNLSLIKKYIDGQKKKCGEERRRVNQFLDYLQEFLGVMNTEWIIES
Assay: cell-based or functional assay
Write the answer as a number in pM, unit excluded.

The cases that follow already have their IC50 (pM), proliferation assay with hIL-5 (0.25 ng/mL) on record.
h5MP90G7 human IL-5 mAb (antibody, V domains shown) VH: EVQLVESGGGLVQPGGSLRLSCAASGFAFSSSFMSWVRQAPGKGLEWVSTINGNGGTYYADSMKGRFTISRDNVKSTVTLQMNSLKPEDTAVYYCAADWISGGYYFPALGYWGQGTQVTVSS VL: SYELTQSPSVSVALRQTAKITCGGNNIGRKSAQWYQQKPGQAPVLVIYADSRRPSGIPERFSGSNSGNTATLTISGAQAEDEADYYCQVWDSSANAAVFGGGTHLTVL; 1.61
h5MP26H7 human IL-5 mAb (antibody, V domains shown) VH: EVQLVESGGGLVQPGGSLRLSCAASGFAFSSSFMSWVRQAPGKGLEWVSTINGNGGTYYADSMKGRFTISRDNVKSTVTLQMNSLKPEDTAVYYCAADWISGGYYFPALGYWGQGTQVTVSS VL: SYELTQSPSVSVAQTQTAKITCGGDNIGSKSVQWYQQKPGQAPVLAIYADTRRPSGIPERFSGSNSGNTATLTITGAQAEDEADYYCQVWDTSTNVAVFGGGTRLTIL; 37.5

Then there is this binder:
Task item: Item under review: h5MP90E7 human IL-5 mAb (antibody, V domains shown) VH: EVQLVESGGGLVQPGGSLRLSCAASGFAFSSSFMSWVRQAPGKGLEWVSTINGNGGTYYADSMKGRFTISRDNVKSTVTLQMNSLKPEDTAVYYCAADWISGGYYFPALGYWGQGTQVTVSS VL: SYELTQSPSVSVALRQTAKITCGGNNIGSKSAQWYQQKPGQAPVLVIYADSRRPSGIPERFSGSNSGNTATLTISGAQAEDEADYYCQVWDVSTNAAVFGGGTHLSVL . Reported IC50 (pM), proliferation assay with hIL-5 (0.25 ng/mL)?
Reply: 8.84
